This section presents molecules with their documented Population Pyknosed Nuclei (%) values.
- System: U2OS
- assay comment: Multiplex assay against U2OS
- Format: toxicity, cell-based
- reported conditions: human, 24 h, 10 µM, compound concentration 10 uM, replicate 2
Could you give me the number in %? Just the number is fine.

- Nc1ccc(C(=O)Nc2cccc(-c3nc(N4CCOCC4)c4oc5ncccc5c4n3)c2)cn1: 34
- COc1cc2c(NC3CCN(C(C)C)CC3)nc(N3CCC(F)(F)CC3)nc2cc1OCCCN1CCCC1: 22
- CC(C)(C)c1cnc(CSc2cnc(NC(=O)C3CCNCC3)s2)o1 [BMS-387032]: 34
- CNc1oc(-c2cccc3ccccc23)nc1C#N: 25

Form field Population Pyknosed Nuclei (%) for item "Cl.Cl.Nc1ncnc2c1c(-c1cccc(OCc3ccccc3)c1)cn2[C@H]1C[C@@H](CN2CCC2)C1" on U2OS: 42

Summary: CCn1c(-c2nonc2N)nc2cnc(Oc3cccc(NC(=O)c4ccc(OCCN5CCOCC5)cc4)c3)cc21 [GSK-269962A] , U2OS, Population Pyknosed Nuclei (%) = 17
